- System: TK-10 renal
- Experimental Protocol: NCI tumour cell line growth inhibition, 48 h; in the data active = GI50 below about 0.43 µM; inactive = the rest
Reply using exactly one outcome from active, inactive

Below, 5 compounds whose answers are already recorded.
>>> df
                                   compound          tgt  discrete_label
0   Cc1cc2nc3c4cccc(O)c4n(CCN(C)C)c3nc2cc1C  TK-10 renal        inactive
1  Oc1ccc(CN(Cc2ccc(C(F)(F)F)cc2)Cc2ccc(O)c3ncccc23)c2cccnc12  TK-10 renal          active
2  CS(=O)(=O)CC(Cc1ccccc1)C(=O)O (stereo unspecified)  TK-10 renal        inactive
3  CCC[CH2][Sn]1([CH2]CCC)[O]C(=O)CN=Cc2ccccc2[O]1  TK-10 renal          active
4  Cc1ccc(C[P+](c2ccccc2)(c2ccccc2)c2ccccc2)cc1  TK-10 renal        inactive

Kindly consider the entry below.
Query :: For COc1ccc(-c2csc3c2-n2cccc2C3=O)cc1O , which call appears in the assay record?
Result :: inactive

---

- Test system: RXF-631 renal
- Experimental Protocol: NCI tumour cell line growth inhibition, 48 h
Provide the reported TGI of each item.

Solved cases (3 shown):
>>> print(df.to_string())
                                   molecule  recorded_metric  experimental_value
0         O=C(O)CCCNS(=O)(=O)c1ccc2ccccc2c1              TGI            > 100 µM
1  COC(=O)C1=Cc2c(cc(OC)c(OC)c2OC)[C@H](c2ccc(OC)c(OC)c2OC)C1C(=O)OC (some centres undefined)              TGI            > 100 µM
2      CCOC(=O)C(=O)Nc1ccc(Cl)c(C(F)(F)F)c1              TGI            > 100 µM

Then there is this molecule:
Query :: Give TGI for Clc1cc(Cl)cc(Nc2nc3ccccc3nc2-c2cccs2)c1
Result :: 31.8 µM

---

Would you mind telling me the reported TGI of each entry?
- Tested on: U251 CNS
- Experimental Protocol: NCI tumour cell line growth inhibition, 48 h

Known results for compounds:
                                   compound  experimental_value
0  CC(=O)OC12CC(C)C3(O)C4C=C(C)C(=O)[C@@]4(O)CC(CO)=C[C@H]3C1C2(C)C (stereo not given in full)           > 1000 µM
1  N#C[C@H]1Nc2ccccc2[C@@H](O)C1O (stereo not given in full)            > 100 µM
2  NC(=O)c1c2c(cc3c(=O)c4ccccc4[nH]c13)CCCC2            > 100 µM
3  COc1ccc(-c2ccccc2)cc1-c1c(Nc2cc(Cl)cc(Cl)c2O)c(=O)c1=O             > 50 µM
4  CN(C)S(=O)(=O)c1ccc(Nc2ccc(O)c3c2C(=O)c2c([N+](=O)[O-])ccc(O)c2C3=O)cc1            > 100 µM

Hi there! I need TGI for each item below, if you can.
1. COc1cc2c3c(n(CCCNCCNCCCN)c(=O)c2cc1OC)-c1cc2c(cc1C3=O)OCO2
2. Cn1ccc(C(=O)NCCCCCNC(=O)c2ccn(C)c(=O)c2O)c(O)c1=O
3. CC(=O)OCC1OC(c2nnc(C)o2)=CC(OC(C)=O)C1OC(C)=O (stereo not given)
4. C=CCN(CC=C)CC(C(C)=O)C(c1ccccc1)c1c(O)c2ccccc2oc1=O (stereo not given)
5. COc1ccc2[nH]cc(-c3nc(-c4c[nH]c5ccncc45)cs3)c2c1

Result ::
0.422 µM
> 100 µM
> 100 µM
> 100 µM
3.67 µM
